Tested on: male NMRI mice
Assay: Determination of the spontaneous motor activity
Conditions: p.o., 60 minutes prior to the test, dose producing 50% of inhibition of motor activity
Structures can show the parent of a compound that is named as a salt.
experimental readout: ID50

These recorded examples may help you get a feel for the data.
CCOc1ccccc1Cc1c(N)nc(SCCCN2CCN(C=O)CC2)nc1N ... >100 mg/kg
COc1ccccc1Cc1c(N)nc(SCCCCN2CCNCC2)nc1N [Example 18, trihydrochloride] ... >100 mg/kg
COc1ccccc1Cc1c(N)nc(SCCN2CCN(C(C)C)CC2)nc1N [Example 5, trihydrochloride hydrate] ... >100 mg/kg
COc1ccccc1Cc1c(N)nc(SCCCCN2CCN(C)CC2)nc1N [Example 8, trihydrochloride hydrate] ... >100 mg/kg
COc1ccccc1Cc1c(N)nc(SCCN2CCNCC2)nc1N [Example 1 (fumarate)] ... >100 mg/kg
COc1ccccc1Cc1c(N)nc(SCCN2CCN(C(C)=O)CC2)nc1N ... >100 mg/kg
Nc1nc(SCCCN2CCNCC2)nc(N)c1Cc1ccc(Cl)cc1 [Example 17, trihydrochloride trihydrate] ... >100 mg/kg
COc1ccccc1Cc1c(N)nc(SCCN2CCNCC2)nc1N [1 (besylate)] ... >90 mg/kg

ID50 for COc1ccccc1Cc1c(N)nc(SCCN2CCN(CCCN(C)C)CC2)nc1N [Example 26, hydrate] is >100 mg/kg

Entry Nc1nc(SCCN2CCNCC2)nc(N)c1Cc1ccc(F)cc1 [Example 19, trihydrochloride hydrate] — recorded ID50 = >100 mg/kg

Reference for the values: patent US6469168B1
